# Test system: HOP-92 NSCLC
# assay.text: NCI tumour cell line growth inhibition, 48 h
Some compounds, each annotated with its measured TGI.

// worked examples, TGI included
compound	readout.name	reported.value
O=C(C(=O)N1CC2C=CC1CC2)c1c[nH]c2ccccc12 (stereo unspecified)	TGI	> 100 µM
O=C(NC1CCN(Cc2ccccc2)CC1)c1cc2nc(-c3ccc(Cl)s3)cc(C(F)(F)F)n2n1	TGI	> 100 µM
O=c1[nH]nc(-c2ccccc2)n1/N=C/c1c(O)ccc2ccccc12	TGI	> 100 µM
O=C1COc2ccc([N+](=O)[O-])cc2C(=O)C1	TGI	> 10 µM

### Prompt Write down the reported TGI of O=C1Cc2c([nH]c3ccc(Br)cc23)-c2ccccc2N1 , test system: HOP-92 NSCLC.
### Response > 100 µM

### Prompt Write down the reported TGI of Cc1cccc(NC(=O)C(=O)C(C(=O)c2ccccc2F)C2OC(=O)c3ccccc32)c1Cl (stereo unspecified) , test system: HOP-92 NSCLC.
### Response > 100 µM
